# credit: patent US20120157401A1

- Tested on: hypoxia-inducible endogenous VEGF expression
- assay text: Hypoxia-inducible endogenous VEGF expression ELISA in HeLa cells, dose-response EC50 (Table 3)
- Assay type: cell-based, human
- condition label: Homo sapiens, HeLa, read-out: ELISA EC50 μM
experimental readout: EC50

[Q] Tell me the measured EC50 of O=C(Oc1ccc(Cl)cc1)N1CCc2c([nH]c3ccc(Cl)cc23)[C@@H]1c1ccc(OC[C@@H](O)CN2CCOCC2)cc1 , please.
[A] < 0.008 µM

Continuing:
[Q] Tell me the measured EC50 of COc1cc(C2c3[nH]c4ccc(Cl)cc4c3CCN2C(=O)Oc2ccc(Cl)cc2)ccc1OCCN1CCOCC1 (stereo not shown) , please.
[A] 0.008 to 0.04 µM

[Q] Tell me the measured EC50 of O=C(Oc1ccc(Cl)cc1)N1CCc2c([nH]c3ccc(Cl)cc23)[C@@H]1c1ccc(OCCCNCCO)cc1 , please.
[A] 0.008 to 0.04 µM

[Q] Tell me the measured EC50 of O=C(Oc1ccc(Cl)cc1)N1CCc2c([nH]c3ccc(Cl)cc23)C1c1ccc(OCC(O)CN2CCOCC2)cc1 (stereo not shown) , please.
[A] < 0.008 µM

###

- Test system: soluble VEGF121 and VEGF165 isoforms
- assay text: Inhibition of soluble VEGF production in human tumor cell lines (ELISA, EC50)
- Assay type: cell-based
- condition label: Lung, NCI H460, 48 hours
- Protocol: Study Design. […] In these experiments, cultures were established under normoxic conditions (21% oxygen). […] Cells requiring induction of VEGF production were incubated under hypoxic conditions (1% oxygen). At the completion of treatment, the conditioned media were collected and assayed by ELISA (as described in Section 9.1.1.1) for soluble VEGF121 and VEGF165 isoforms; results were calculated as percentage inhibition relative to vehicle treated controls. […]
experimental readout: pEC50
Kindly note that pEC50 refers to -log10 of the concentration in mol/L and answer with the value alone.

[Q] Tell me the measured pEC50 of COc1ccc(C2c3[nH]c4ccc(Cl)cc4c3CCN2C(=O)Oc2ccc(Cl)cc2)cc1 (racemic) , please.
[A] 8.00

###

Listed here: items and their measured EC50.
- Tested on: hypoxia-inducible endogenous VEGF expression
- assay text: Hypoxia-inducible endogenous VEGF expression ELISA in HeLa cells, dose-response EC50 (Table 3)
- Type: cell-based, human
- condition label: Homo sapiens, HeLa, read-out: ELISA EC50 μM

[Q] Tell me the measured EC50 of COc1cc(C2c3[nH]c4ccc(Cl)cc4c3CCN2C(=O)Oc2ccc(C)cc2)ccc1OCCCN1CCOCC1 (stereo not shown) [Compound 1132] , please.
[A] 0.008 to 0.04 µM

[Q] Tell me the measured EC50 of O=C(COc1ccc(C2c3[nH]c4ccc(Cl)cc4c3CCN2C(=O)Oc2ccc(F)cc2)cc1)NCCN1CCOCC1 (stereo not shown) [Compound 1022] , please.
[A] 0.04 to 0.2 µM

[Q] Tell me the measured EC50 of COCCN(CCOC)CC(O)COc1ccc(C2c3[nH]c4ccc(Cl)cc4c3CCN2C(=O)Oc2ccc(F)cc2)cc1 (stereo not shown) [Compound 913] , please.
[A] < 0.008 µM

[Q] Tell me the measured EC50 of Cc1ccc(OC(=O)N2CCc3c([nH]c4ccc(Cl)cc34)[C@@H]2c2ccc(OCCC(O)CN(CCO)CCO)cc2)cc1 (stereo partly shown) [Compound 1288] , please.
[A] 0.008 to 0.04 µM

[Q] Tell me the measured EC50 of COc1cc(C2c3[nH]c4ccc(Cl)cc4c3CCN2C(=O)Oc2ccc(Cl)cc2)ccc1OCCCCN1CCOCC1 (stereo not shown) [Compound 1094] , please.
[A] 0.008 to 0.04 µM

[Q] Tell me the measured EC50 of COCCN1CCN(C(=O)COc2ccc(C3c4[nH]c5ccc(Cl)cc5c4CCN3C(=O)Oc3ccc(F)cc3)cc2)CC1 (stereo not shown) [Compound 1021] , please.
[A] 0.04 to 0.2 µM

Please find the next compound below.
[Q] Tell me the measured EC50 of O=C(Oc1ccc(F)cc1)N1CCc2c([nH]c3ccc(Cl)cc23)C1c1ccc(OCCCN2CCOCC2)cc1 (stereo not shown) [Compound 989] , please.
[A] < 0.008 µM

###

Listed here: items and their measured pEC50.
- System: hypoxia-inducible endogenous VEGF expression
- assay text: Hypoxia-inducible endogenous VEGF expression ELISA in HeLa cells, dose-response EC50 (Table 3)
- Format: cell-based, human
- condition label: Homo sapiens; HeLa cells, hypoxic conditions (1% O2), VEGF ELISA of conditioned media; read-out: ELISA EC50
- Description: The ability of the Compounds to modulate hypoxia-inducible endogenous VEGF expression may be analyzed as follows. VEGF protein levels may be monitored by an ELISA assay (R&D Systems). […] The conditioned media may then be assayed by ELISA, and the concentration of VEGF calculated from the standard ELISA curve of each assay. A dose-response analysis may be performed using the ELISA assay and conditions described above. […] A series of, e.g., seven different concentrations may be analyzed. […]
pEC50: −log10 of the molar value.

Illustrative cases are given below, each with its answer.
[Q] Tell me the measured pEC50 of Nc1ccn(CCOc2ccc(C3c4[nH]c5ccc(Cl)cc5c4CCN3C(=O)Oc3ccc(Cl)cc3)cc2)n1 (stereo not shown) , please.
[A] > 8.10

[Q] Tell me the measured pEC50 of CC(C)SCCCOc1ccc(C2c3[nH]c4ccc(Cl)cc4c3CCN2C(=O)Oc2ccc(Cl)cc2)cc1 (stereo not shown) , please.
[A] > 8.10

[Q] Tell me the measured pEC50 of COCCOC(=O)NCC(O)CCOc1ccc([C@H]2c3[nH]c4ccc(Cl)cc4c3CCN2C(=O)Oc2ccc(Cl)cc2)cc1 (stereo partly shown) , please.
[A] > 8.10

Continuing:
[Q] Tell me the measured pEC50 of O=C(Oc1ccc(Cl)cc1)N1CCc2c([nH]c3ccc(Cl)cc23)[C@@H]1c1ccc(OC2OC(CO)C(O)C(O)C2O)cc1 (stereo partly shown) , please.
[A] 6.00 to 6.70

[Q] Tell me the measured pEC50 of [H]/N=c1\sc(C)cn1CCOc1ccc(C2c3[nH]c4ccc(Cl)cc4c3CCN2C(=O)Oc2ccc(Cl)cc2)cc1 (stereo not shown) , please.
[A] > 8.10

[Q] Tell me the measured pEC50 of CN1C(=O)CN(CCCOc2ccc(C3c4[nH]c5ccc(Cl)cc5c4CCN3C(=O)Oc3ccc(Cl)cc3)cc2)C1=O (stereo not shown) , please.
[A] > 8.10

[Q] Tell me the measured pEC50 of [H]/N=c1\sccn1CCOc1ccc(C2c3[nH]c4ccc(Cl)cc4c3CCN2C(=O)Oc2ccc(F)cc2)cc1 (stereo not shown) , please.
[A] > 8.10

[Q] Tell me the measured pEC50 of Nc1ccn(CCOc2ccc(C3c4[nH]c5ccc(Cl)cc5c4CCN3C(=O)Oc3ccc(F)cc3)cc2)n1 (stereo not shown) , please.
[A] > 8.10

[Q] Tell me the measured pEC50 of Cc1ccc(OC(=O)N2CCc3c([nH]c4ccc(Cl)cc34)[C@@H]2c2ccc(OCCC(O)CNC(=O)c3ccccn3)cc2)cc1 (stereo partly shown) , please.
[A] > 8.10

[Q] Tell me the measured pEC50 of N#CCOc1ccc(C2c3[nH]c4ccc(Cl)cc4c3CCN2C(=O)Oc2ccc(Cl)cc2)cc1 (stereo not shown) , please.
[A] > 8.10

[Q] Tell me the measured pEC50 of [H]/N=c1\sc(C)cn1CCOc1ccc(C2c3[nH]c4ccc(Cl)cc4c3CCN2C(=O)Oc2ccc(F)cc2)cc1 (stereo not shown) , please.
[A] > 8.10

[Q] Tell me the measured pEC50 of CC(=O)OCC1OC(n2cc(CCOc3ccc([C@H]4c5[nH]c6ccc(Cl)cc6c5CCN4C(=O)Oc4ccc(Cl)cc4)cc3)nn2)C(OC(C)=O)C(OC(C)=O)C1OC(C)=O (stereo partly shown) , please.
[A] 6.70 to 7.40

[Q] Tell me the measured pEC50 of O=C(Oc1ccc(Cl)cc1)N1CCc2c([nH]c3ccc(Cl)cc23)[C@@H]1c1ccc(Oc2ccc(Cl)nn2)cc1 , please.
[A] > 8.10

###

- Test system: hypoxia-inducible endogenous VEGF expression
- assay text: Hypoxia-inducible endogenous VEGF expression ELISA in HeLa cells, dose-response EC50 (Table 3)
- Assay type: cell-based, human
- condition label: Homo sapiens; HeLa cells, hypoxic conditions (1% O2), VEGF ELISA of conditioned media; read-out: ELISA EC50
pEC50: −log10 of the molar value.
Listed here: items and their measured pEC50.

Illustrative cases are given below, each with its answer.
[Q] Report pEC50 for Cc1ccc(OC(=O)N2CCc3c([nH]c4ccc(Cl)cc34)[C@@H]2c2ccc(OCCC(O)CNS(C)(=O)=O)cc2)cc1 (stereo partly drawn) tested on hypoxia-inducible endogenous VEGF expression.
[A] 7.40 to 8.10

[Q] Report pEC50 for [H]/N=c1\sc(C)cn1CCOc1ccc([C@H]2c3[nH]c4ccc(Cl)cc4c3CCN2C(=O)Oc2ccc(Cl)cc2)cc1 tested on hypoxia-inducible endogenous VEGF expression.
[A] 7.40 to 8.10

[Q] Report pEC50 for O=C(Oc1ccc(F)cc1)N1CCc2c([nH]c3ccc(Cl)cc23)C1c1ccc(OCCNc2ncncn2)cc1 (stereo not drawn) tested on hypoxia-inducible endogenous VEGF expression.
[A] > 8.10

[Q] Report pEC50 for CS(=O)(=O)Cc1cnc(Oc2ccc([C@H]3c4[nH]c5ccc(Cl)cc5c4CCN3C(=O)Oc3ccc(Cl)cc3)cc2)s1 tested on hypoxia-inducible endogenous VEGF expression.
[A] > 8.10

[Q] Report pEC50 for C[Si](C)(C)CCS(=O)(=O)N1CCC(Oc2ccc([C@H]3c4[nH]c5ccc(Cl)cc5c4CCN3C(=O)Oc3ccc(Cl)cc3)cc2)CC1 tested on hypoxia-inducible endogenous VEGF expression.
[A] > 8.10

Continuing:
[Q] Report pEC50 for O=C(Oc1ccc(F)cc1)N1CCc2c([nH]c3ccc(Cl)cc23)[C@@H]1c1ccc(OC2CCOCC2)cc1 tested on hypoxia-inducible endogenous VEGF expression.
[A] > 8.10
